Values from patent US8513271B2

# assay.target: delta opioid receptor (Mus musculus, UniProt P32300)
# Construct: NG108-15 cell membranes were purchased from Applied Cell Sciences (Rockville, Md.); host or cells: NG108-15 cell membranes
# Sequence (P32300 whole entry): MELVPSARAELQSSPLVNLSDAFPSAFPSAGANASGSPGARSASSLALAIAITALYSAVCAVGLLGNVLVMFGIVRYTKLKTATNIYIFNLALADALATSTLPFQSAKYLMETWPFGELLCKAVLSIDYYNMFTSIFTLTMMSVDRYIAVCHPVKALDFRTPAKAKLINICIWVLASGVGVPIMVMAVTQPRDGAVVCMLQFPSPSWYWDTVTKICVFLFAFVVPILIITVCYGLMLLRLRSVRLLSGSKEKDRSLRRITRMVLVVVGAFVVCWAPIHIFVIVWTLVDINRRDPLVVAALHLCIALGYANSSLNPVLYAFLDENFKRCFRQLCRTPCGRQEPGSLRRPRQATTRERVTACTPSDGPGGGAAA
# method.summary: [35S]GTPγS binding assay in NG108-15 cell membranes (delta opioid functional assay), 200 nM screen
# Format: biochemical
# recorded.conditions: relative efficacy from dose response; NG108-15 cell membranes
Each entry below lists one item and its recorded GTPγS δ-opioid receptor Rel Efficacy value.
value.kind: GTPγS δ-opioid receptor Rel Efficacy

>>> result("O=CNc1ccc(Oc2nc(-c3cncc(F)c3)ncc2NC[C@@H]2CCCN2)cc1")
0.986
>>> result("N#Cc1cncc(-c2ncc(NC[C@@H]3CCCN3)c(Oc3ccc(OC(F)F)cc3)n2)c1")
0.986
>>> result("COc1ccc(Oc2nc(-c3cncc(SC)c3)ncc2NC[C@@H]2C[C@@H](F)CN2)cc1")
0.987
